These data points were gathered from patent US20090143279A1.

Tested on: cellular dehydrogenase activity
Test context: composite Z-score vs DMSO; Conc 20 μM
The following compounds are listed with their measured MTT values.
Output spec: single numeric token, no unit.

[
  {
    "Compound": "CC(=O)Nc1c(I)cc(I)c(C(=O)O)c1I",
    "Experimental system": "cellular dehydrogenase activity",
    "Measured endpoint": "MTT",
    "Numeric result": "−0.938"
  },
  {
    "Compound": "COc1ccc2c(c1)OCc1c-2oc2cc(OC)ccc12 [dehydrovariabilin]",
    "Experimental system": "cellular dehydrogenase activity",
    "Measured endpoint": "MTT",
    "Numeric result": "−1.225"
  },
  {
    "Compound": "CC(=O)O[C@@H]1C[C@H]2C(C)(C)[C@H](O)C[C@H](O)[C@]2(C)[C@H]2CC[C@@]3(C)[C@H](c4ccoc4)OC(=O)[C@H]4O[C@]43[C@@]21C",
    "Experimental system": "cellular dehydrogenase activity",
    "Measured endpoint": "MTT",
    "Numeric result": "−0.622"
  }
]

The recorded MTT with cellular dehydrogenase activity for `C=C(C)[C@@H]1CC[C@]2(C(=O)O)CC[C@]3(C)[C@H](CC[C@@H]4[C@@]5(C)CC[C@H](O)C(C)(C)[C@@H]5CC[C@]43C)[C@@H]12` was −2.381

Query `COc1ccc(-c2coc3cc(O)ccc3c2=O)c(OC)c1O` on cellular dehydrogenase activity; MTT returned: −0.532

* * *

Test system: mitochondrial membrane potential
Assay type: cell-based, mouse
Measured endpoint: ΔΨm
Number, no unit, nothing else.

As a guide, the following entries are already answered.
[
  {
    "Compound": "CN(C(=O)CN(CCO)CC(=O)N(C)C(C)(C)Cc1ccccc1)C(C)(C)Cc1ccccc1",
    "Experimental system": "mitochondrial membrane potential",
    "Numeric result": "−0.742"
  },
  {
    "Compound": "CC(=O)N(CC(O)CO)c1c(I)c(C(=O)NCC(O)CO)c(I)c(C(=O)NCC(O)CO)c1I (stereo not shown) [iohexol]",
    "Experimental system": "mitochondrial membrane potential",
    "Numeric result": "−0.970"
  }
]

Record CC(=O)[O-].CC(=O)[O-].[Cd+2] [cadmium acetate] . Reported ΔΨm: −1.276

* * *

Test system: cytochrome c
Type: cell-based, mouse
Listed here are molecules together with their documented cyt c.
Give the figure only, with no unit attached.

The following molecules have reported results that may help.
[
  {
    "Molecule": "C[C@]12CC[C@H]3C(=CCc4cc(O)ccc43)[C@@H]1CCC2=O",
    "Measured endpoint": "cyt c",
    "Numeric result": "−0.069"
  },
  {
    "Molecule": "CC1(C)O[C@@H]2C[C@H]3[C@@H]4C[C@H](F)C5=CC(=O)C=C[C@]5(C)[C@H]4[C@@H](O)C[C@]3(C)[C@]2(C(=O)CO)O1 [flunisolide]",
    "Measured endpoint": "cyt c",
    "Numeric result": 0.715
  }
]

# molecule `COCCCC/C(=N\OCCN)c1ccc(C(F)(F)F)cc1` ; its cyt c = 0.483

* * *

System: cellular dehydrogenase activity
Test context: normalized composite Z-score vs mock-treated (DMSO) wells; Conc 20 μM
Response key: 1 means MTT >= -0.7; -1 means MTT < -0.7.

Worked examples follow.
[
  {
    "Molecule": "C=C1CCC(=O)C(C)CCC2C1CC2(C)C (stereo not shown) [dihydrocaryophyllen-5-one]",
    "Experimental system": "cellular dehydrogenase activity",
    "Cat": -1
  },
  {
    "Molecule": "C[C@]12CC[C@H]3[C@@H](CC[C@]4(O)C[C@@H](O)CC[C@]34C(=O)O)[C@@]1(O)CC[C@@H]2C1=CC(=O)OC1",
    "Experimental system": "cellular dehydrogenase activity",
    "Cat": -1
  },
  {
    "Molecule": "CC(=O)O[C@@H]1CC2C(C)(C)C(=O)[C@@H]3O[C@@H]3[C@]2(C)C2CC[C@]3(C)C(=CC(=O)O[C@H]3c3ccoc3)[C@@]21C (stereo partly drawn) [1 (2)alpha-epoxydeoxydihydrogedunin]",
    "Experimental system": "cellular dehydrogenase activity",
    "Cat": -1
  },
  {
    "Molecule": "C[C@@H]1CC[C@@]2(OC1)O[C@H]1C[C@H]3[C@@H]4CC[C@H]5C[C@@H](O)CC[C@]5(C)C4=CC[C@]3(C)[C@H]1[C@@H]2C [hydroxy (3beta)isoallospirost-9 (11)-ene]",
    "Experimental system": "cellular dehydrogenase activity",
    "Cat": -1
  },
  {
    "Molecule": "CC(=O)C[C@H]1CCCCN1",
    "Experimental system": "cellular dehydrogenase activity",
    "Cat": 1
  }
]

Please turn your attention to the following entry.
Request: Is reported MTT greater than or equal to -0.7 here: `O=C1C[C@@H](c2ccc(O)cc2)Oc2cc(O)ccc21`
Result: 1
